These measurements were taken from ChEMBL document CHEMBL4382252.

test system: Hepatitis C virus; experiment: Antiviral activity against HCV JFH-1 infected in human Huh7.5.1 cells assessed as reduction in NS3/NS5A expression by Western blot analysis; type: functional, organism-based, Hepacivirus hominis
property-name: IC50 (µM)
Give a bare numeral; the unit µM is implied.

// fetch Hepatitis C virus IC50 for `SILYMARIN`
80
